Assay: growth inhibition, MDA-MB-436, cell-based, BGB or cisplatin combos, synergistic combos for chromothripsis tumors (AID 1671458);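 note: cells exposed for 96 hours; 0% = vehicle DMSO and 100% = killing by high DMSO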
Conditions: MDA-MB-436 breast carcinoma growth inhibition, drug combinations; measured here: BGB combination; at 0.5 µM; stronger effect = higher value
I'd appreciate it if you could supply inhibition values for the items below.
Kindly provide the numeric value in % only, without the unit symbol.

Reported inhibition ( O=c1[nH]c(=O)n(C2CC(O)C(CO)O2)cc1I (stereo unspecified) ) = -10.8

Reported inhibition ( C=CC1=C(C)C2=CC3=NC(=C(CC(=O)O)C4=NC(=C(C)C4=C(O)O)C=c4[nH]c(c(C)c4CC)=CC1=N2)C(CCC(=O)O)C3C (stereo unspecified) ) = -19.5

Reported inhibition ( CON=C1CN(c2nc3c(cc2F)c(=O)c(C(=O)O)cn3C2CC2)CC1CN (stereo unspecified) ) = -3.57

Reported inhibition ( Cc1cn(C2C=CC(CO)O2)c(=O)[nH]c1=O (stereo unspecified) ) = -19.7

Reported inhibition ( Cc1cc(C#N)cc(C)c1Oc1nc(Nc2ccc(C#N)cc2)nc(N)c1Br ) = -22.5

Reported inhibition ( NC(=O)c1ncn(C2OC(CO)C(O)C2O)c1O (stereo unspecified) ) = -16

Reported inhibition ( N#Cc1ccc(OC2CCC(NC(=O)CCSc3nc4ccccc4c(=O)[nH]3)CC2)cc1 (stereo unspecified) ) = -7.72

Reported inhibition ( Nc1ccn(C2CCC(CO)O2)c(=O)n1 (stereo unspecified) ) = -29.5

Reported inhibition ( CC(C=CC(=O)NO)=CC(C)C(=O)c1ccc(N(C)C)cc1 (stereo unspecified) ) = 39

Reported inhibition ( NC(=S)NN=Cc1ncccc1N ) = -21.8

Reported inhibition ( COc1ccccc1S(=O)(=O)Nc1ccc2c(c1)CN(C)C(=O)N2 ) = -2.15

###

I'd appreciate it if you could supply luciferase signal values for the items below.
Target: Mitogen-activated protein kinase 7 (Homo sapiens) (UniProt Q13164)
Sequence (Q13164 whole entry, looked up, the tested form may be a part): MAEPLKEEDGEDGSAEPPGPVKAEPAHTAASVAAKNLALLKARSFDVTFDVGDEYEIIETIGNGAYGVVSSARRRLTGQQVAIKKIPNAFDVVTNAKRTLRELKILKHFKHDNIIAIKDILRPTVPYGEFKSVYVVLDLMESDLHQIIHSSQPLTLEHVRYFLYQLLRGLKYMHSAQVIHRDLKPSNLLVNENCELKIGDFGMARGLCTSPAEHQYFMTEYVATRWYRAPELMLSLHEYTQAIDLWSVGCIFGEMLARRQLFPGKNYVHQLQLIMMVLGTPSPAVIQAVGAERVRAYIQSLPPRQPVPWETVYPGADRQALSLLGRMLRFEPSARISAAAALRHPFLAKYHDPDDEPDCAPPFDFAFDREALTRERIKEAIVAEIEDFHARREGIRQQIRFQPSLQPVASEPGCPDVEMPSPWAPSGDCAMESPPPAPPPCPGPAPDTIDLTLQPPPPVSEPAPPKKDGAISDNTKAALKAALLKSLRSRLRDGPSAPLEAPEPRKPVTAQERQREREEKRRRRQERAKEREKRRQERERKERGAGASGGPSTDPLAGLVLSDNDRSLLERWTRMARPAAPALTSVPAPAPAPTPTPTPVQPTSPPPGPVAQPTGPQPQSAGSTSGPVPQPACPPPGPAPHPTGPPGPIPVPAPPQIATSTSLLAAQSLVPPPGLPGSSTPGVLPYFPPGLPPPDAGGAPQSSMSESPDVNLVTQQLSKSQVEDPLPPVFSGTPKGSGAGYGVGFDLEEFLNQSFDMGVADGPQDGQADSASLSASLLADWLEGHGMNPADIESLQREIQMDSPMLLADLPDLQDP
Test: Gal4-ERK5 driven luciferase induction – cell-based, HTS, primary screen (AID 1508626);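 note: luciferase driven by Gal4-ERK5 fusion binding five Gal4 sites before minimal TATA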
Conditions: HeLa Gal4-ERK5 transactivation, 18 h, at 5 µM, stronger effect = higher value
Active and inactive are the calls of the source.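 The calls were made as follows: active = luciferase signal above three times the same-plate solvent-only control wells; inactive = the rest.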

Reported luciferase signal ( C[C@]12C=CC(=O)C=C1CC[C@@H]1[C@@H]2[C@@H](O)C[C@@]2(C)[C@H]1CC[C@]2(O)C(=O)COP(=O)(O)O ) = 96 AU (inactive)

Reported luciferase signal ( C/C=C(/C)C(=O)O[C@H]1[C@H](OC(C)=O)[C@]2(CO)[C@H](O)C[C@]3(C)C(=CC[C@@H]4[C@@]5(C)CC[C@H](O[C@@H]6O[C@H](C(=O)O)[C@@H](O[C@@H]7O[C@H](CO)[C@@H](O)[C@H](O)[C@H]7O)[C@H](O)[C@H]6O[C@@H]6O[C@H](CO)[C@@H](O)[C@H](O)[C@H]6O)[C@](C)(CO)[C@@H]5CC[C@]43C)[C@@H]2CC1(C)C ) = 276 AU (inactive)

Reported luciferase signal ( CC(=O)O[C@H]1CC[C@@]2(C)[C@@H](CC[C@@H]3[C@@H]2CC(=O)[C@]2(C)[C@@H]4[C@H](C[C@@H]32)O[C@]2(CC[C@@H](C)CO2)[C@H]4C)C1 ) = 56 AU (inactive)

Reported luciferase signal ( CC(C)CCC[C@@H](C)C1CC[C@H]2[C@@H]3CCC4CC(=O)CC[C@]4(C)[C@H]3CC[C@]12C (stereo not given in full) ) = 52 AU (inactive)

Reported luciferase signal ( CC1(C)CC2C1CC[C@]1(C)CCC3C(C(=O)O)CC(=O)O[C@@]32C1 (stereo not given in full) ) = 56 AU (inactive)

Reported luciferase signal ( COc1ccc(-c2cc(=O)c3c(O)c(OC)c(OC)c(OC)c3o2)cc1 ) = 120 AU (inactive)

Reported luciferase signal ( CC(=O)OCC(=O)[C@@]1(O)CCC2C3CC[C@@H]4C[C@H](O)CC[C@]4(C)C3C(=O)C[C@@]21C (stereo not given in full) ) = 112 AU (inactive)

Reported luciferase signal ( CO/N=C(/C(=O)NC1C(=O)N2C(C(=O)O)=C(CSc3nc(=O)c(=O)[nH]n3C)CS[C@H]12)c1csc(N)n1 (stereo not given in full) ) = 52 AU (inactive)

Reported luciferase signal ( CCCCCCCCCCCCCCC(C(=O)O)C(O)(CC(=O)OC)C(=O)O (stereo not given) ) = 64 AU (inactive)

Reported luciferase signal ( N[C@@H](C=O)[C@@H](O[C@@H]1O[C@H](C(=O)O)[C@@H](O)[C@H](O)[C@H]1O)[C@@H](O)[C@H](O)CO ) = 20 AU (inactive)

Reported luciferase signal ( OC[C@H]1O[C@H]([S-])[C@H](O)[C@@H](O)[C@@H]1O.[Au+] ) = 68 AU (inactive)

Reported luciferase signal ( OC[C@@H](O)C(O)[C@@H](O)CO (stereo not given in full) ) = 88 AU (inactive)

Reported luciferase signal ( CC(C)CCC[C@@H](C)[C@H]1CC[C@H]2[C@@H]3CC[C@H]4C[C@H](O)CC[C@]4(C)[C@H]3CC[C@]12C ) = 140 AU (inactive)

Reported luciferase signal ( COc1ccc(/C=C/C(=O)c2ccc(O)cc2O)cc1OC ) = 60 AU (inactive)

Reported luciferase signal ( CC(C)CCC[C@@H](C)[C@H]1CC[C@H]2[C@@H]3C=CC4=CC(=O)CC[C@]4(C)[C@H]3CC[C@]12C ) = 44 AU (inactive)

###

Test: drug combination growth inhibition, ovarian cancer – cell-based, oncology-focused library, rucaparib conditional, profiling panel (AID 1508598)
Settings: patient-derived ovarian cancer cells, CellTiter-Glo viability, 144 h; at 1.25 µM; OCI-C5x cells; without rucaparib; stronger effect = lower value
observationType: viability (%)
Kindly provide the numeric value in % only, without the unit symbol.

Reported viability ( C[C@]12C=CC(=O)C=C1CC[C@@H]1[C@H]2C(=O)C[C@@]2(C)[C@H]1CC[C@@]2(O)C(=O)CO ) = 97.7

Reported viability ( CC(=O)O[C@]12CO[C@@H]1C[C@H](O)[C@]1(C)C(=O)[C@H](O)C3=C(C)[C@H](OC(=O)[C@H](O)[C@@H](NC(=O)OC(C)(C)C)c4ccccc4)C[C@](O)([C@H](OC(=O)c4ccccc4)C21)C3(C)C (stereo not given in full) ) = 41.3

Reported viability ( COC1=C2C[C@H](C)C[C@@H](OC)[C@H](O)[C@H](C)/C=C(\C)[C@H](OC(N)=O)[C@@H](OC)/C=C/C=C(\C)C(=O)NC(=CC1=O)C2=O ) = 7.13

Reported viability ( Nc1nonc1C(=Nc1ccc(F)c(Cl)c1)NO ) = 115

Reported viability ( CC(=O)O[C@@]1(C(C)=O)CC[C@H]2[C@@H]3C=C(C)C4=CC(=O)CC[C@]4(C)[C@@H]3CC[C@@]21C ) = 92.1

Reported viability ( C[C@@]1(c2nc3c(C(N)=O)cccc3[nH]2)CCCN1 ) = 108

Reported viability ( C[C@@H]1C[C@H]2[C@@H]3CCC4=CC(=O)C=C[C@]4(C)[C@]3(F)[C@H](O)C[C@]2(C)[C@]1(O)C(=O)CO ) = 116

Reported viability ( O=C(O)c1cc(I)ccc1NC(=O)[C@H](Cc1ccccc1)NCc1ccccc1 ) = 115

Reported viability ( N[C@@H]1CCCN(c2c(/C=C3\SC(=O)NC3=O)cccc2-c2ccccc2)C1 ) = 103

Reported viability ( CCc1c2c(nc3ccc(OC(=O)N4CCC(N5CCCCC5)CC4)cc13)-c1cc3c(c(=O)n1C2)COC(=O)[C@@]3(O)CC ) = 62.8

Reported viability ( COc1cccc2c1C(=O)c1c(O)c3c(c(O)c1C2=O)C[C@@](O)(C(=O)CO)C[C@H]3O[C@H]1C[C@H](N)[C@@H](O)[C@H](C)O1 ) = 31.1

Reported viability ( Cc1ccc(NC(=O)c2ccc(CN3CCN(C)CC3)cc2)cc1Nc1nc(-c2cccnc2)cs1 ) = 130

Reported viability ( NC(=O)CCCSc1nc(N)nc(-c2c(Cl)cc3c4c(cccc24)COC3)n1 ) = 7.19

Reported viability ( CC(C)C[C@H](NP(=O)(O)O[C@@H]1O[C@@H](C)[C@H](O)[C@@H](O)[C@H]1O)C(=O)N[C@@H](Cc1c[nH]c2ccccc12)C(=O)O ) = 117

Reported viability ( COc1cc(C(=O)NC2CCN(C)CC2)ccc1Nc1ncc2c(n1)N(C1CCCC1)CC(F)(F)C(=O)N2C ) = 19.6

Reported viability ( CO[C@H]1/C=C\C=C(\C)C(=O)NC2=CC(=O)C(NCCN(C)C)=C(C[C@@H](C)C[C@H](OC)[C@H](O)[C@@H](C)/C=C(\C)[C@@H]1OC(N)=O)C2=O ) = 4.98

Reported viability ( CO[C@H]1C[C@H]2CC[C@@H](C)[C@@](O)(O2)C(=O)C(=O)N2CCCC[C@H]2C(=O)O[C@H]([C@H](C)C[C@@H]2CC[C@H](OP(C)(C)=O)[C@H](OC)C2)CC(=O)[C@H](C)/C=C(\C)[C@@H](O)[C@@H](OC)C(=O)[C@H](C)C[C@H](C)/C=C/C=C/C=C/1C ) = 94.5

Reported viability ( COc1cc(=C2C=c3ccccc3=N2)[nH]/c1=C\c1[nH]c(C)cc1C ) = 91.7

Reported viability ( CC1=C(/C=C/C(C)=C\C=C\C(C)=C/C(=O)O)C(C)(C)CCC1 ) = 105

Reported viability ( CN(CC(=O)N(Cc1ccc(C2CCCCC2)cc1)c1ccc(C(=O)O)cc1)S(=O)(=O)c1c(F)c(F)c(F)c(F)c1F ) = 107
